test-details: ATG_GLI_CIS: Attagene CIS-FACTORIAL HepG2 Assay for human Zinc Finger Protein GLI1 (AID 2282945)
recorded-conditions: HepG2, Attagene cis-factorial reporter mRNA, GLI element; actives raise or lower the signal
The source made the active and inactive calls. The calls were made as follows: active = hit-call score of the fitted dose curve at least 0.9, where 1 is the maximum; inactive = score below 0.9.
The categories you may choose from are yes = active, no = inactive

// outcome(item) with item = O=c1c2ccccc2c(=O)c2c1cc(Cl)c1[nH]c3c([nH]c12)c(Cl)cc1c(=O)c2ccccc2c(=O)c13
no

Answer briefly: the call reported for CC1CCC(=O)O1 (configuration not stated) in this assay.
no

Short answer needed: outcome of this test for CC(C)CCCCCCCOC(=O)c1ccccc1C(=O)OCCCCCCCC(C)C ?
no

Assay result, entry Cc1ccc(N(SC(F)(Cl)Cl)S(=O)(=O)N(C)C)cc1 — outcome?
yes

Any idea what this test logged for CCN(CC)C(=S)S ?
no

Can you look up the reported call for CC(C)(c1cc(Cl)c(O)c(Cl)c1)c1cc(Cl)c(O)c(Cl)c1 for me?
yes

Dear all, I need the recorded test outcome for Cc1ccccc1CCl , thank you.
no
